Each recorded value in this set is attributed to patent US6469013B2.

- target_or_system: recombinant murine JAK3 (Mus musculus)
- Sequence (Q62137 1-1100): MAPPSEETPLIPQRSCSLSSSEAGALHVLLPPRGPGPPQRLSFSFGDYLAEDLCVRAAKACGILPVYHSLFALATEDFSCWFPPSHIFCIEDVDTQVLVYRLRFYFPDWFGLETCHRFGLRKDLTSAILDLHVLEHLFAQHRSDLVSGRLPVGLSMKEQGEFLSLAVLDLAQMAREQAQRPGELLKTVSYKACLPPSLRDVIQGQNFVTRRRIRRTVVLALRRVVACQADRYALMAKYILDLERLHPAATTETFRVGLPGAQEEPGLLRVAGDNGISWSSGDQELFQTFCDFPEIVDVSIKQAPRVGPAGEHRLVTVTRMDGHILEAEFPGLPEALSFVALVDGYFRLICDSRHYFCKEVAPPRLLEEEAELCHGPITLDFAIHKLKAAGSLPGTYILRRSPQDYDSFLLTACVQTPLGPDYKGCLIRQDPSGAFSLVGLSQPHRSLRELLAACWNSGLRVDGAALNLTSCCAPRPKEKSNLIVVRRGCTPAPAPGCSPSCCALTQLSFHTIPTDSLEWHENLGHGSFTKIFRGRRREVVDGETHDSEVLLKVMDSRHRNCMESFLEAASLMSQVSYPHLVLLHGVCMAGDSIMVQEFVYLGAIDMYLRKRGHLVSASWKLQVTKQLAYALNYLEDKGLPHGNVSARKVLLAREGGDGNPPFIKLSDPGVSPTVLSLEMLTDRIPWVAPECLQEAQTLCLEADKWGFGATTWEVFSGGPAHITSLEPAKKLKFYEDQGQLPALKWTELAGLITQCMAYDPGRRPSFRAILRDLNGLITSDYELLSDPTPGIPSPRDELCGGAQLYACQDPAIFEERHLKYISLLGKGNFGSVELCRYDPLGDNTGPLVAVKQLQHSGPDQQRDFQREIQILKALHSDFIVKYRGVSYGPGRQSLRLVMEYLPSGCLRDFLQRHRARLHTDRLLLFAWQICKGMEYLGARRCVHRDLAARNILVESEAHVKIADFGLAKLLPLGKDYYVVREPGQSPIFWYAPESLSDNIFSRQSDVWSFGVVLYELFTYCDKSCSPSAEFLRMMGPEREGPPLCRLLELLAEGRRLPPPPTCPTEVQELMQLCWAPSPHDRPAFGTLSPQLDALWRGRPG
- protocol_summary: Recombinant JAK3 immune complex kinase assay (baculovirus, Sf21)
- Type: biochemical
- reported_conditions: recombinant murine JAK3, converted from μg/ml
assay_readout: IC50

COc1cc2ncnc(Nc3ccc(O)cc3)c2cc1OC [WHI-P131] ... ~78 µM

Note: attention shifts to another entry.
Data request: // map COc1cc2ncnc(Nc3ccc(O)c(Br)c3)c2cc1OC [WHI-P154] to recorded IC50 (system: recombinant murine JAK3 (Mus musculus))
Data returned: ~128 µM

----------
Reported pIC50 values are given for each entry in this list.
- target_or_system: recombinant murine JAK3 (Mus musculus, UniProt Q62137)
- protocol_summary: Recombinant JAK3 immune complex kinase assay (baculovirus, Sf21)
- Assay type: biochemical
- reported_conditions: recombinant murine JAK3
Scale explanation: pIC50 corresponds to minus log10 of a concentration expressed in moles per litre.

Data request: Report pIC50 for COc1cc2ncnc(Nc3ccc(O)c(Br)c3)c2cc1OC please.
Data returned: 3.89

Data request: Report pIC50 for COc1cc2ncnc(Nc3ccc(O)cc3)c2cc1OC please.
Data returned: 4.11

----------
- target_or_system: human JAK3 (Homo sapiens, UniProt P52333)
- Sequence (P52333 1-1124): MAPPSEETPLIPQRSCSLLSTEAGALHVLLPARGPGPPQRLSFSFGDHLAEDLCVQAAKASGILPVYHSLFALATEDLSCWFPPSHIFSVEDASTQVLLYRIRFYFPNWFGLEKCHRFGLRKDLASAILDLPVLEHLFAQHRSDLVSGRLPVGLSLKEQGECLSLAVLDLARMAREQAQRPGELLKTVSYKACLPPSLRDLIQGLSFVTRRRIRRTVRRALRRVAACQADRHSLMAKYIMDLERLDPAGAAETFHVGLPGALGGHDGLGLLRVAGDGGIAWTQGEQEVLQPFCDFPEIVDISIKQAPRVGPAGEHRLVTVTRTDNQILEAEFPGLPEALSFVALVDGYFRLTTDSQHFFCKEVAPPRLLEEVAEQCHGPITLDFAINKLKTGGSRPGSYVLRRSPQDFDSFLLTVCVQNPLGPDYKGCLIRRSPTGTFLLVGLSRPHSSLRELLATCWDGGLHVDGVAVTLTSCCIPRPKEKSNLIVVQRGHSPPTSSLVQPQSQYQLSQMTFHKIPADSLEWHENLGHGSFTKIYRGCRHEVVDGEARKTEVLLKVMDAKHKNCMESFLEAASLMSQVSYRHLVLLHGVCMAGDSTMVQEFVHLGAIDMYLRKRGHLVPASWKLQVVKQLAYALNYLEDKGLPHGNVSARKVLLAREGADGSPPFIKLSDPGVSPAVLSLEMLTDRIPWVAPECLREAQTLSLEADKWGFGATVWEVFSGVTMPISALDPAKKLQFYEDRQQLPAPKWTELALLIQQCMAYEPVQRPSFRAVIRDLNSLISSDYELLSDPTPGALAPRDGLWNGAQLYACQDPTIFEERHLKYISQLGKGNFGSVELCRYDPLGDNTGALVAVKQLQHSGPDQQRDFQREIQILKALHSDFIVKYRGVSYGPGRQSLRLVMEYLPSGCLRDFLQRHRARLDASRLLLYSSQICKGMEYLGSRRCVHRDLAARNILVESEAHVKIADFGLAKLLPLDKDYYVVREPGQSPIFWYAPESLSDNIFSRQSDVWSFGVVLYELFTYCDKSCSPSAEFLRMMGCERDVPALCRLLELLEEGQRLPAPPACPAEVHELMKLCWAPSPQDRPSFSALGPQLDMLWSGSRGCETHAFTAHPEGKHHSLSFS
- protocol_summary: JAK3 immune complex kinase assay (JAK3 immunoprecipitated from KL2 EBV-transformed B cell line)
- Assay type: biochemical
- reported_conditions: JAK3 kinase assay, KL2 cell-derived human JAK3; read-out: IC50
Reported pIC50 values are given for each entry in this list.
Scale explanation: pIC50 corresponds to minus log10 of a concentration expressed in moles per litre.

COc1cc2ncnc(Nc3ccc(O)cc3)c2cc1OC [WHI-P131] ... 5.04

Note: attention shifts to another entry.
Data request: Report pIC50 for COc1cc2ncnc(Nc3cc(Br)c(O)c(Br)c3)c2cc1OC [WHI-P97] please.
Data returned: 4.96

----------
- Tested on: NALM-6 cells
- protocol_summary: In situ TUNEL apoptosis assay
- Type: cell-based
- reported_conditions: Homo sapiens, 10-500 μM, 48 hours, read-out: EC50, percentage of apoptotic cells (TUNEL)
assay_readout: EC50

Data request: Report EC50 for COc1cc2ncnc(Nc3ccc(O)cc3)c2cc1OC please.
Data returned: 84.6 µM

----------
- Tested on: NALM-6 (pre-B ALL)
- protocol_summary: Methylcellulose clonogenic assay
- Assay type: cell-based, human
- reported_conditions: Homo sapiens; NALM-6 cells; read-out: EC50, inhibition of clonogenic growth
- Protocol: The antileukemic activity of compound 6 against clonogenic tumor cells was examined using a methylcellulose colony assay system (Uckun, F. M., et al., J. Exp. Med. 163: 347-368, 1986; Messinger, Y., et al., Clin Cancer Res. 4: 165-70, 1998). In brief, cells (10^5/ml in RPMI-10% FBS) were treated overnight at 37° C. with compound 6 at varying concentrations. […] The percent inhibition of colony formation was calculated using the following formula: […]
assay_readout: EC50

Data request: Report EC50 for COc1cc2ncnc(Nc3ccc(O)cc3)c2cc1OC [WHI-P131] please.
Data returned: 24.4 µM

----------
- target_or_system: human JAK3 (Homo sapiens, UniProt P52333)
- Sequence (P52333 1-1124): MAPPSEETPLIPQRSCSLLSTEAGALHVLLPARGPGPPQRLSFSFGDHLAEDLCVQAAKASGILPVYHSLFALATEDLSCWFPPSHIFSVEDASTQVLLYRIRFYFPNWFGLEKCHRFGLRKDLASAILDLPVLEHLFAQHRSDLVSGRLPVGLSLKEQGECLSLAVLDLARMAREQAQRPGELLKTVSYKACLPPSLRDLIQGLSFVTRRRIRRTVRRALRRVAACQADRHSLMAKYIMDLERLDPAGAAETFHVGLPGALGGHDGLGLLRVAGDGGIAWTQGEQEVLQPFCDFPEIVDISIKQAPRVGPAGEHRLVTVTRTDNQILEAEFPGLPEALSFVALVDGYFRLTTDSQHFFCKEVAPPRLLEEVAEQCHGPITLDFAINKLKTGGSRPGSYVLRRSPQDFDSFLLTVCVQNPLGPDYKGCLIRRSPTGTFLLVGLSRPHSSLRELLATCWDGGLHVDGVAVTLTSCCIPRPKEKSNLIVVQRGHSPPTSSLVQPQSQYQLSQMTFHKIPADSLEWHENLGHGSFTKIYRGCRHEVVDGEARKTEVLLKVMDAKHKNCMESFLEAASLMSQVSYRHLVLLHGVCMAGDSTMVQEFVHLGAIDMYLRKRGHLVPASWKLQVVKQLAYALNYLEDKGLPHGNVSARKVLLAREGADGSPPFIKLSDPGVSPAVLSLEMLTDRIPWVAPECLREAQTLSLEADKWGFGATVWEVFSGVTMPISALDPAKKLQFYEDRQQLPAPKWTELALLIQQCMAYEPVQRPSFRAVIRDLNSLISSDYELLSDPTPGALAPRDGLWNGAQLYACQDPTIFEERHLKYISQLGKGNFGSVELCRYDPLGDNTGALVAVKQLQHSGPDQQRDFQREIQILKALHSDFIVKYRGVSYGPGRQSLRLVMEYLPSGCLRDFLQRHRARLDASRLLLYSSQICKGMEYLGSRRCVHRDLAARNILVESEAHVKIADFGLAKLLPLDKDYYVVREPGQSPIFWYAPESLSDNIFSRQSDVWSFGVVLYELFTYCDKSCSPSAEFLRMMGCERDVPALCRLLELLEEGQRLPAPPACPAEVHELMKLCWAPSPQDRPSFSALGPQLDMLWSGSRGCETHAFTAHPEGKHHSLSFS
- protocol_summary: JAK3 immune complex kinase assay (JAK3 immunoprecipitated from KL2 EBV-transformed B cell line)
- Type: biochemical
- reported_conditions: JAK3 kinase assay, KL2 cell-derived human JAK3; read-out: IC50
pIC50: −log10 of the molar value.
Reported pIC50 values are given for each entry in this list.

Look over these answered cases.
COc1cc2ncnc(Nc3ccccc3)c2cc1OC [WHI-P258] ... < 3.52
COc1cc2ncnc(Nc3ccc(C)c(Br)c3)c2cc1OC [WHI-P111] ... < 3.52

Note: attention shifts to another entry.
Data request: // map COc1cc2ncnc(Nc3cccc(Br)c3)c2cc1OC [WHI-P79] to recorded pIC50 (system: human JAK3 (Homo sapiens, UniProt P52333))
Data returned: < 3.52
